Measured endpoint: melting point

Exercise: Given the compound N#CC=C1CCN(c2ccc(N3CC(CN=[N+]=[N-])OC3=O)cc2F)CC1 (stereo in doubt) , what is its reported melting point?
Key: 112 to 114 °C

Exercise: Let us now turn to "CCC(C#N)=C1CCN(c2ccc(N3C[C@H](CNC(=O)CBr)OC3=O)cc2F)CC1"
Key: 200 to 203 °C

Exercise: Let us now turn to "CC(C)(C)CC(=O)NC[C@H]1CN(c2ccc(N3CCC(=CC#N)CC3)c(F)c2)C(=O)O1"
Key: 210 to 212 °C

Exercise: Let us now turn to "CC(=O)NC[C@H]1CN(c2ccc(N3CC/C(=C/C#N)C(C)(C)C3)c(F)c2)C(=O)O1"
Key: 150 to 152 °C

----------
Hi there, I'd appreciate the recorded melting point for every entry that follows.

Exercise: Given the compound "CS(=O)(=O)OC[C@H]1CN(c2ccc(N3CCC(=CC#N)CC3)cc2)C(=O)O1" , what is its reported melting point?
Key: 120 to 122 °C

Exercise: Let us now turn to CC(=O)NC[C@H]1CN(c2ccc(N3CC=C(CC#N)C(C)C3)c(F)c2)C(=O)O1 (stereo partly shown)
Key: 149 to 150 °C

Exercise: Let us now turn to N#CC(CO)C1CCN(c2ccc(N3C[C@H](COc4ccon4)OC3=O)cc2F)CC1 (stereo partly shown)
Key: 146 to 148 °C

Exercise: Let us now turn to CCOC(=O)c1cn(CC2CN(c3ccc(N4CCC(CC#N)CC4)cc3)C(=O)O2)nn1 (stereo in doubt)
Key: 198 to 200 °C

----------
Measured endpoint: melting point

Exercise: Given the compound N#CC=C1CCN(c2ccc(N3C[C@H](CNC(=O)CO)OC3=O)cc2F)CC1 [Example 13] , what is its reported melting point?
Key: 68 to 70 °C

Exercise: Let us now turn to CC(=O)NC[C@H]1CN(c2ccc(N3CCC(=C(C)C#N)CC3)cc2)C(=O)O1 [Example 72]
Key: 94 to 96 °C

Exercise: Let us now turn to N#CC=C1CCN(c2ccc(N3C[C@H](CNC(=O)C(N)CO)OC3=O)cc2F)CC1 (some centres unmarked) [Example 42]
Key: 88 to 90 °C

Exercise: Let us now turn to COC(=O)c1cn(C[C@H]2CN(c3ccc(N4CCC(C(C#N)CO)CC4)c(F)c3)C(=O)O2)nn1 (some centres unmarked) [Example 150]
Key: 204 to 206 °C

Exercise: Let us now turn to N#CC=C1CCN(c2ccc(N3C[C@H](CNC=O)OC3=O)cc2F)CC1 [Example 8]
Key: 183 to 184 °C

Exercise: Let us now turn to N#CC=C1CCN(c2ccc(N3C[C@H](CNC(=O)[C@@H](N)Cc4c[nH]cn4)OC3=O)cc2F)CC1 [Example 43]
Key: 93 to 96 °C

Exercise: Let us now turn to N#CC=C1CCN(c2ccc(N3C[C@H](CNC(=O)CBr)OC3=O)cc2F)CC1 [Example 34]
Key: 160 to 162 °C

Exercise: Let us now turn to N#CC=C1CCN(c2ccc(N3C[C@H](CNC(=O)C(Cl)(Cl)Cl)OC3=O)cc2F)CC1 [Example 33]
Key: 142 to 144 °C

----------
Hi there, I'd appreciate the recorded melting point for every entry that follows.

Exercise: Given the compound N#CC=C1CCN(c2ccc(N3CC(CN=[N+]=[N-])OC3=O)cc2)CC1 (stereo in doubt) [Example 1] , what is its reported melting point?
Key: 80 to 82 °C

Exercise: Let us now turn to C[C@H](N)C(=O)NC[C@H]1CN(c2ccc(N3CCC(=CC#N)CC3)c(F)c2)C(=O)O1 [Example 41]
Key: 103 to 105 °C

Exercise: Let us now turn to CNC(=S)NC[C@H]1CN(c2ccc(N3CCC(=CC#N)CC3)c(F)c2)C(=O)O1 [Example 52]
Key: 191 to 192 °C

Exercise: Let us now turn to CC(=O)NC[C@H]1CN(c2ccc(N3CCC(=C(C#N)CCO)CC3)c(F)c2)C(=O)O1 [Example 113]
Key: 192 to 194 °C

Exercise: Let us now turn to CC(C#N)=C1CCN(c2ccc(N3C[C@H](CNC(=O)OCC(C)C)OC3=O)cc2F)CC1 [Example 81]
Key: 158 to 160 °C

Exercise: Let us now turn to N#CCC1CCN(c2ccc(N3CC(Cn4cc(C#N)nn4)OC3=O)cc2F)CC1 (stereo in doubt) [Example 128]
Key: 200 to 202 °C

Exercise: Let us now turn to CC(C#N)=C1CCN(c2ccc(N3C[C@H](COc4ccon4)OC3=O)cc2F)CC1 [Example 83]
Key: 137 to 138 °C

Exercise: Let us now turn to N#CC=C1CCN(c2ccc(N3C[C@H](CNC(=O)C4COC(=O)N4)OC3=O)cc2F)CC1 (stereo in doubt) [Example 24]
Key: 145 °C

----------
Hi there, I'd appreciate the recorded melting point for every entry that follows.

Exercise: Given the molecule N#CC=C1CCN(c2ccc(N3CC(Cn4cc(C#N)nn4)OC3=O)cc2F)CC1 (stereo in doubt) , what is its reported melting point?
Key: 78 to 80 °C

Exercise: Let us now turn to CCOC(=O)c1cn(C[C@H]2CN(c3ccc(N4CCC(C(C#N)CO)CC4)c(F)c3)C(=O)O2)nn1 (stereo partly shown)
Key: 170 to 172 °C

Exercise: Let us now turn to "N#CC=C1CCN(c2ccc(N3C[C@H](CNC(=S)CN)OC3=O)cc2F)CC1"
Key: 157 to 158 °C

Exercise: Let us now turn to N#CC=C1CCN(c2ccc(N3CC(Cn4cc(C#N)nn4)OC3=O)cc2)CC1 (stereo in doubt)
Key: 186 to 188 °C

Exercise: Let us now turn to CC(C)COC(=O)NC[C@H]1CN(c2ccc(N3CC/C(=C\C#N)C(F)C3)c(F)c2)C(=O)O1 (stereo partly shown)
Key: 162 to 164 °C

Exercise: Let us now turn to "CC(=O)NC[C@H]1CN(c2ccc(N3CCC(=C(C#N)n4ccnc4C)CC3)c(F)c2)C(=O)O1"
Key: 204 to 206 °C

Exercise: Let us now turn to "CC(=O)NC[C@H]1CN(c2ccc(N3CCC(=C(C#N)n4cncn4)CC3)c(F)c2)C(=O)O1"
Key: 194 to 196 °C

----------
Hi there, I'd appreciate the recorded melting point for every entry that follows.

Exercise: Given the compound N#CC=C1CCN(c2ccc(N3C[C@H](CNC(=O)CI)OC3=O)cc2F)CC1 [Example 36] , what is its reported melting point?
Key: 178 to 180 °C

Exercise: Let us now turn to N#CC=C1CCN(c2ccc(N3C[C@H](CNC(=S)NCCO)OC3=O)cc2F)CC1 [Example 48]
Key: 168 to 170 °C

Exercise: Let us now turn to CC(C#N)=C1CCN(c2ccc(N3C[C@H](CNC(=O)C(Cl)(Cl)Cl)OC3=O)cc2F)CC1 [Example 80]
Key: 166 to 168 °C

Exercise: Let us now turn to CC(=O)NC[C@H]1CN(c2ccc(N3CCC(=C(C#N)n4ccnc4)CC3)c(F)c2)C(=O)O1 [Example 102]
Key: 196 to 198 °C

----------
Hi there, I'd appreciate the recorded MIC for every entry that follows.
# Test system: E. faecium 367 LNZR
# Test description: MIC determination, linezolid resistant E. faecium 367 LNZR
# Type: cell-based
# Assay context: Enterococcus faecium, read-out: MIC E. faecium 367 LNZR
Response body: numeric value in µg/mL, unit text excluded.

Exercise: Given the compound "CCC(C#N)=C1CCN(c2ccc(N3C[C@H](CNC(=O)C(Cl)Cl)OC3=O)cc2F)CC1" , what is its reported MIC?
Key: 3.12

Exercise: Let us now turn to "CC(=O)NC[C@H]1CN(c2ccc(N3CCC(=C(Br)C#N)CC3)c(F)c2)C(=O)O1"
Key: 3.12

Exercise: Let us now turn to "CCC(C#N)=C1CCN(c2ccc(N3C[C@H](CNC(C)=O)OC3=O)cc2F)CC1"
Key: 6.25

Exercise: Let us now turn to "CC(C#N)=C1CCN(c2ccc(N3C[C@H](CNC(=O)C(F)F)OC3=O)cc2F)CC1"
Key: 6.25

Exercise: Let us now turn to "N#CC=C1CCN(c2ccc(N3C[C@H](CNC(=O)CCl)OC3=O)cc2F)CC1"
Key: 6.25

Exercise: Let us now turn to "N#CC=C1CCN(c2ccc(N3C[C@H](CNC(N)=S)OC3=O)cc2F)CC1"
Key: 1.56

Exercise: Let us now turn to "N#CC=C1CCN(c2ccc(N3C[C@H](CNC(=O)C(Cl)Cl)OC3=O)cc2F)CC1"
Key: 6.25

Exercise: Let us now turn to "CC(=S)NC[C@H]1CN(c2ccc(N3CCC(=C(C)C#N)CC3)c(F)c2)C(=O)O1"
Key: 1.56
